biological target: adenosine A2A receptor (Homo sapiens)
Sequence (P29274 whole entry): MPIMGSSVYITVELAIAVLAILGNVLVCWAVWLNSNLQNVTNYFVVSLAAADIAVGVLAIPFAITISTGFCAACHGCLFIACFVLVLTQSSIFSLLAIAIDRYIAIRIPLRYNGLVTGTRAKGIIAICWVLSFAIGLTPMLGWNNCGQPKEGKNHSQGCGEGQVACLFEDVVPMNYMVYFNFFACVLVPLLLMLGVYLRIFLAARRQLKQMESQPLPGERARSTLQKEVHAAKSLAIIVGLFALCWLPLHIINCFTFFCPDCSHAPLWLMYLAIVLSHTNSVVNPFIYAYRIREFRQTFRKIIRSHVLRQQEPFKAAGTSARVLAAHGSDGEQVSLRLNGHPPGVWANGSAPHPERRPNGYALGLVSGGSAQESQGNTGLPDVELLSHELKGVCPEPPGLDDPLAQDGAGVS
assay readout: IC50 (µM)
Respond numerically; units are µM and should not be typed.

Assay adenosine A2A receptor (Homo sapiens), sample O=C(N/N=C/c1ccsc1)c1ccc2c(c1)OCO2 , IC50 read: 11.4
